Entries and their measured IC50 follow.
target system: SHP-2 enzyme (Met1-Leu525) (Homo sapiens (Human))
assay info: SHP2 inhibition enzymatic assay
Assay type: biochemical
condition details: 0.5 nM SHP-2 activated by 500 nM IRS1 peptide, 75 μM DiFMUP substrate; read-out: SHP2wt-IC50

Example entries begin here.
compound	IC50
NC[C@]1(c2ccccc2F)[C@@H]2CCN(c3cnc4c(-c5ccc(S(=O)(=O)F)c6ncccc56)n[nH]c4n3)C[C@@H]21	< 500 nM
NC[C@]1(c2ccccc2F)[C@@H]2CCN(c3cnc4c(-c5ccc6c(=O)[nH]ncc6c5Cl)n[nH]c4n3)C[C@@H]21	< 500 nM

// next entry
Prompt line: Given the entry CN1C(=O)COc2ccc(-c3n[nH]c4nc(N5CC[C@@H]6[C@H](C5)[C@@]6(CN)c5ccccc5F)cnc34)c(Cl)c21 , report its measured IC50.
Response line: < 500 nM

====

target system: SHP-2 enzyme (Met1-Leu525) (Homo sapiens (Human))
assay info: SHP2 inhibition enzymatic assay
Assay type: biochemical
condition details: SHP2wt-IC50, 0.5 nM SHP-2 activated by 500 nM IRS1 peptide, 75 μM DiFMUP substrate
readout: IC50

Known IC50 results, listed for orientation:
compound	readout	value reported
Cc1csc(C2(CN)C3CCN(c4cnc5c(-c6ccc(OS(=O)(=O)F)c(Cl)c6Cl)n[nH]c5n4)CC32)n1 (stereo not shown)	IC50	< 500 nM
Cc1csc(C2(CN)C3CCN(c4cnc5c(-c6ccc(S(=O)(=O)F)c7ccccc67)n[nH]c5n4)CC32)n1 (stereo not shown)	IC50	500 to 3000 nM
Cc1csc([C@@]2(CN)[C@@H]3CCN(c4cnc5c(-c6ccc(OS(=O)(=O)F)c7ncccc67)n[nH]c5n4)C[C@@H]32)n1	IC50	< 500 nM

Prompt line: Request body: readout IC50, system SHP-2 enzyme (Met1-Leu525) (Homo sapiens (Human)), query NC[C@]1(c2ccccc2F)[C@@H]2CCN(c3cnc4c(-c5ccc(OS(=O)(=O)F)c6ncccc56)n[nH]c4n3)C[C@@H]21 . Return the value.
Response line: < 500 nM

====

Let's look at some compounds and their measured IC50.
target system: SHP-2 enzyme (Met1-Leu525) (Homo sapiens (Human))
assay info: SHP2 inhibition enzymatic assay
Type: biochemical
condition details: read-out: SHP2wt-IC50

Some compounds with recorded IC50:
compound	IC50
Cc1csc(C2(CN)C3CCN(c4cnc(Sc5ccnc(N)c5Cl)c(N)n4)CC32)n1 (stereo not drawn)	< 500 nM
Cc1csc(C2(CN)C3CCN(c4nc5nc(Sc6ccnc(N)c6Cl)cnc5[nH]4)CC32)n1 (stereo not drawn)	< 500 nM
NCC1(c2ccccc2)C2CCN(c3nc4nc(Sc5cccnc5C(F)(F)F)cnc4[nH]3)CC21 (stereo not drawn)	< 500 nM
Cc1csc(C2(CN)C3CCN(c4ncc(Sc5ccnc(N)c5Cl)c5nccn45)CC32)n1 (stereo not drawn)	< 500 nM
NCC1C2CCN(c3nc4nc(Sc5cccnc5C(F)(F)F)cnc4[nH]3)CC12 (stereo not drawn)	< 500 nM

Next, consider the following compound.
Prompt line: May I ask what IC50 has been recorded for NCC1(c2ccccc2)C2CCN(c3nc4nc(Sc5ccnc(N)c5Cl)cnc4[nH]3)CC21 (stereo not drawn) ?
Response line: < 500 nM

====

target system: SHP-2 enzyme (Met1-Leu525) (Homo sapiens (Human), UniProt Q06124)
Sequence (Q06124 1-525): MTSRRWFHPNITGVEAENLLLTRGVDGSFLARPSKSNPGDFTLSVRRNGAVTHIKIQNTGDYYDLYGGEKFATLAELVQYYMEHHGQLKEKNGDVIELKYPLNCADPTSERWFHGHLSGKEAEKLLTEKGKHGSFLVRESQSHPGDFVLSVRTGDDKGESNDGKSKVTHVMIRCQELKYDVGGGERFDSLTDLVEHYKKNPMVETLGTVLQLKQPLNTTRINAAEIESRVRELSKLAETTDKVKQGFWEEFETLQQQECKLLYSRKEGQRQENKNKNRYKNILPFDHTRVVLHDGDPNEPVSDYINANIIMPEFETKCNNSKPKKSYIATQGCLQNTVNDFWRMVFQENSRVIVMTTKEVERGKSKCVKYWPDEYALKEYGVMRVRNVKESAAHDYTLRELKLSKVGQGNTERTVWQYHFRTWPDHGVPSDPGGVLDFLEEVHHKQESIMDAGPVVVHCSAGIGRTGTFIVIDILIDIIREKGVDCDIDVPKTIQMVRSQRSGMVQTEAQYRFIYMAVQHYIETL
assay info: SHP2 inhibition enzymatic assay
Type: biochemical
condition details: 0.5 nM SHP-2 activated by 500 nM IRS1 peptide, 75 μM DiFMUP substrate; read-out: SHP2wt-IC50
readout: IC50

Examples from the recorded data:
molecule	target system	IC50
Cc1c(-c2n[nH]c3nc(N4CC[C@@H]5[C@H](C4)[C@@]5(CN)c4ccccc4F)cnc23)cnn1C	SHP-2 enzyme (Met1-Leu525) (Homo sapiens (Human), UniProt Q06124)	< 500 nM
Cn1cc2ccc(-c3n[nH]c4nc(N5CC[C@@H]6[C@H](C5)[C@@]6(CN)c5ccccc5F)cnc34)c(Cl)c2n1	SHP-2 enzyme (Met1-Leu525) (Homo sapiens (Human), UniProt Q06124)	< 500 nM
Cc1cc([C@@]2(CN)[C@@H]3CCN(c4cnc5c(-c6ccc7nn(C)c(Cl)c7c6Cl)n[nH]c5n4)C[C@@H]32)no1	SHP-2 enzyme (Met1-Leu525) (Homo sapiens (Human), UniProt Q06124)	< 500 nM
CNC(=O)c1ccc(-c2n[nH]c3nc(N4CC[C@@H]5[C@H](C4)[C@@]5(CN)c4cccc(F)c4F)cnc23)c2cccnc12	SHP-2 enzyme (Met1-Leu525) (Homo sapiens (Human), UniProt Q06124)	< 500 nM
NC[C@]1(c2cc(F)ccc2F)[C@@H]2CCN(c3cnc(Sc4ccnc(-n5cccn5)c4Cl)cn3)C[C@@H]21	SHP-2 enzyme (Met1-Leu525) (Homo sapiens (Human), UniProt Q06124)	< 500 nM

Prompt line: Recorded IC50 of Cn1c(=O)[nH]c2ccc(-c3n[nH]c4nc(N5CC[C@@H]6[C@H](C5)[C@@]6(CN)c5ccccc5F)cnc34)cc21 , please.
Response line: < 500 nM

Prompt line: # query: IC50 of entry CN(C)C(=O)Cn1ncc2c(Cl)c(-c3n[nH]c4nc(N5CC[C@@H]6[C@H](C5)[C@@]6(CN)c5ccccc5F)cnc34)ccc21
Response line: < 500 nM

Prompt line: Could you share which IC50 value was measured for Cc1conc1C1(CN)C2CCN(c3cnc4c(-c5cccc(Cl)c5Cl)n[nH]c4n3)CC21 (centres unmarked) ?
Response line: < 500 nM

Prompt line: For the molecule NC[C@]1(c2ccccc2F)[C@@H]2CCN(c3cnc4c(-c5ccc6nn(C7CC7)cc6c5Cl)n[nH]c4n3)C[C@@H]21 , what IC50 is on record?
Response line: < 500 nM

Prompt line: Give its IC50 value. Item: NC[C@]1(c2ccccc2F)[C@@H]2CCN(c3cnc4c(-c5ccc6ncnn6c5)n[nH]c4n3)C[C@@H]21
Response line: < 500 nM

Prompt line: Give the measured IC50 of NC[C@]1(c2ccccc2F)[C@@H]2CCN(c3cnc4c(-c5cccn6nccc56)n[nH]c4n3)C[C@@H]21 .
Response line: < 500 nM

Prompt line: Given Cc1cc(C2(CN)C3CCN(c4cnc5c(-c6ccc7nn(C)cc7c6Cl)n[nH]c5n4)CC32)no1 (centres unmarked) , state its recorded IC50.
Response line: < 500 nM

Prompt line: Can you share its IC50? I mean this molecule: Cn1cc2c(Cl)c(-c3n[nH]c4nc(N5CC[C@@H]6[C@H](C5)[C@@]6(CN)c5c(F)cccc5F)cnc34)ccc2n1
Response line: < 500 nM

Prompt line: Please look up its IC50: NC[C@]1(c2ccccc2F)[C@@H]2CCN(c3cnc(Sc4cccc5ncccc45)cn3)C[C@@H]21
Response line: < 500 nM

Prompt line: What value of IC50 has been reported for the following molecule? NC[C@]1(c2cc(F)ccc2F)[C@@H]2CCN(c3cnc4nc(-c5ccc6c(c5)CCC(=O)N6)ccc4n3)C[C@@H]21
Response line: < 500 nM
